Species: Homo sapiens
Procedure Details: Inhibition of alpha-glucosidase (unknown origin) using PNPG as substrate at 100 uM incubated for 10 mins prior to substrate addition measured every 30 secs for 5 mins relative to control
Measurement Name: inhibition (%)

| Molecule | Unit Tag | inhibition |
| --- | --- | --- |
| C=C(C)[C@@H]1CC[C@]2(C)CC[C@]3(C)[C@@H](CC[C@@H]4[C@@]5(C)CC[C@H](OC(=O)c6ccc[n+](CCCCCCCCCCCCCCCC)c6)C(C)(C)[C@@H]5CC[C@]43C)[C@H]12 | % | 4.5 |
| C=C(C)[C@@H]1CCC2(C)CC[C@]3(C)[C@@H](CC[C@@H]4[C@@]5(C)CC[C@H](OC(=O)c6ccc[n+](CCCCCCCCCCCC)c6)C(C)(C)[C@@H]5CC[C@]43C)[C@H]12 (single isomer, unassigned) | % | 8.8 |

(1) C=C(C)[C@@H]1CC[C@]2(C)CC[C@]3(C)[C@@H](CC[C@@H]4[C@@]5(C)CC[C@H](OC(=O)c6ccc[n+](CC=C(C)C)c6)C(C)(C)[C@@H]5CC[C@]43C)[C@H]12
(2) C=C(C)[C@@H]1CC[C@]2(C)CC[C@]3(C)[C@@H](CC[C@@H]4[C@@]5(C)CC[C@H](OC(=O)c6ccc[n+](C/C=C(\C)CCC=C(C)C)c6)C(C)(C)[C@@H]5CC[C@]43C)[C@H]12
Enquiry: Could you determine which record has the numerically smaller inhibition? Candidates: 1 and 2 Choose, then provide that item's label.
Return: 1
(1: -4.4%, 2: 3.8%)

All values here come from ChEMBL document CHEMBL2375305.
